# target or system: glucose dehydrogenase containing the LPETG motif
Collected relative apparent “Km” for LPXTG values appear next to each entry.
Number only, in %; omit the unit.

Example results:
D160S/K196S + A61E (protein) QEKPQIPKDKSKVAGYIEIPDADIKEPVYPGPATPEQLNRGVSFAEENESLDDQNISIAGHTFIDRPNYQFTNLKAAKKGSMVYFKVGNETRKYKMTSIRSVKPTDVGVLDEQKGKDKQLTLITCDDYNEKTGVWESRKIFVATEVK	100
D160S/K196S + G167E (protein) QAKPQIPKDKSKVAGYIEIPDADIKEPVYPGPATPEQLNRGVSFAEENESLDDQNISIAGHTFIDRPNYQFTNLKAAKKGSMVYFKVGNETRKYKMTSIRSVKPTDVEVLDEQKGKDKQLTLITCDDYNEKTGVWESRKIFVATEVK	131
D160S/K196S + N107W + F144L + G167E (protein) QAKPQIPKDKSKVAGYIEIPDADIKEPVYPGPATPEQLNRGVSFAEEWESLDDQNISIAGHTFIDRPNYQFTNLKAAKKGSMVYLKVGNETRKYKMTSIRSVKPTDVEVLDEQKGKDKQLTLITCDDYNEKTGVWESRKIFVATEVK	197

# evaluate next
Input: May I ask what relative apparent “Km” for LPXTG has been recorded for D160S/K196S + N107W + F144L (protein) QAKPQIPKDKSKVAGYIEIPDADIKEPVYPGPATPEQLNRGVSFAEEWESLDDQNISIAGHTFIDRPNYQFTNLKAAKKGSMVYLKVGNETRKYKMTSIRSVKPTDVGVLDEQKGKDKQLTLITCDDYNEKTGVWESRKIFVATEVK ?
Output: 134

Data credit: patent US20190085311
